Quick reference for inhibition zone (IZ) among some compounds
system: Bacillus cereus; assay: Antibacterial activity against Bacillus cereus after 72 hrs by disk diffusion method; assay type: functional
measured.metric: inhibition zone (IZ)

compound=CN(C)[C@@H]1C(O)=C(C(N)=O)C(=O)[C@@]2(O)C(O)=C3C(=O)c4c(O)cccc4[C@@](C)(O)[C@H]3C[C@@H]12 data_value="25 mm"
compound=CN[C@H](CC(C)C)C(=O)N[C@H]1C(=O)N[C@@H](CC(N)=O)C(=O)N[C@H]2C(=O)N[C@H]3C(=O)N[C@H](C(=O)N[C@H](C(=O)O)c4cc(O)cc(O)c4-c4cc3ccc4O)[C@H](O)c3ccc(c(Cl)c3)Oc3cc2cc(c3O[C@@H]2O[C@H](CO)[C@@H](O)[C@H](O)[C@H]2O[C@H]2C[C@](C)(N)[C@H](O)[C@H](C)O2)Oc2ccc(cc2Cl)[C@H]1O data_value="18 mm"
compound=CC1(C)S[C@@H]2[C@H](NC(=O)Cc3ccccc3)C(=O)N2[C@H]1C(=O)O data_value="14 mm"
compound="CC1COc2c(N3CCN(C)CC3)c(F)cc3c(=O)c(C(=O)O)cn1c23 (stereo unspecified)" data_value="30 mm"
compound=CC1(C)S[C@@H]2[C@H](NC(=O)[C@H](N)c3ccccc3)C(=O)N2[C@H]1C(=O)O data_value="12 mm"
compound=CO/N=C(\C(=O)N[C@@H]1C(=O)N2C(C(=O)O)=C(COC(C)=O)CS[C@H]12)c1csc(N)n1 data_value="14 mm"
